- System: DU-145 prostate
- ASSAY_PROCEDURE: NCI-60 one-dose screen, 48 h
- CONDITION_NOTES: 10 µM unless noted
About 83,000 compounds went through this panel and 20% of them were active in at least one assay; those are over-represented in the sample as a whole. Calls of active or inactive are those of the source. How the source made its calls: active means growth percent below 10; inactive means the rest.
Possible outcomes: active, inactive

[[record]]
molecule = "COc1ccc(C2SCC(=O)Nc3c2c(C)nn3-c2nc3ccc(C)cc3s2)cc1O (stereo unspecified)"
assigned_class = "inactive"

[[record]]
molecule = "COc1cc(C2CC(=O)Nc3nc(N)[se]c32)cc(OC)c1OC (stereo unspecified)"
assigned_class = "inactive"

[[record]]
molecule = "O=S(=O)(O)c1ccc(-c2ccc([As](=O)(O)O)cc2)cc1"
assigned_class = "inactive"

[[record]]
molecule = "Oc1ccc(Br)cc1CN1CCN(Cc2ccc(Cl)cc2)CC1"
assigned_class = "inactive"

[[record]]
molecule = "OC1(c2ccc(Cl)cc2Cl)c2ccccc2C2=NCCN21 (stereo unspecified)"
assigned_class = "inactive"

[[record]]
molecule = "N#C[Se]CCCNS(=O)(=O)C1CC2C=CC1C2 (stereo unspecified)"
assigned_class = "active"

[[record]]
molecule = "CC(C)C1c2ccc(O)cc2Oc2nc(N)c(C#N)c(N)c21 (stereo unspecified)"
assigned_class = "inactive"

[[record]]
molecule = "Nc1ccc([N+](=O)[O-])c2c1Oc1ccccc1O2"
assigned_class = "inactive"

[[record]]
molecule = "CC1(C)N=C(N)N=C(N)N1c1ccc(CCC(=O)Nc2cccc(S(=O)(=O)F)c2)cc1"
assigned_class = "inactive"

[[record]]
molecule = "CNC(=O)Oc1ccccc1"
assigned_class = "inactive"

[[record]]
molecule = "O=[N+]([O-])c1cc([N+](=O)[O-])c(Cl)c(Cl)c1Cl"
assigned_class = "active"

